target: monoclonal antibody 3C10; assay: FCS competition: 2 nM Alexa488-PIVKAII (13-27) premixed with 10 nM mAb 3C10, analog peptide added, overnight; D of the tracer; negative control 47±4 (no displacement), positive control 174±10
Sequence (VH, as listed by the source, chain 1 of 2): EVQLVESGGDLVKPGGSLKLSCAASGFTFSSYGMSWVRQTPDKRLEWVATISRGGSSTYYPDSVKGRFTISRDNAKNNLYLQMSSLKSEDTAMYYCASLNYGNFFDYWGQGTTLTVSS
Sequence (VL, as listed by the source, chain 2 of 2): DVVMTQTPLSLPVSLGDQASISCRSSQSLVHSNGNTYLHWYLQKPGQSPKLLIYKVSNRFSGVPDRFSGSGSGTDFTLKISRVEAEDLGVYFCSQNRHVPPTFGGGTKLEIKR
Rule: Apparent Diffusion Coefficient (D) under 50 um^2/sec gives NO, otherwise YES.

>  <Binder>
LERECMEEKCSFEEA (Synthetic 15-mer homologous to PIVKA-II 13-27, with plain Glu; also called PIVKAII Gla domain (13-27) analog) [Gla domain Factor IX peptide (sequence 11)]

>  <Label>
NO

$$$$
>  <Binder>
LERECMEETCSYEEA (Synthetic 15-mer homologous to PIVKA-II 13-27, with plain Glu; also called PIVKAII Gla domain (13-27) analog) [Gla domain Factor X peptide (sequence 12)]

>  <Label>
YES

$$$$
>  <Binder>
LERECIEEICDFEEA (Synthetic 15-mer homologous to PIVKA-II 13-27, with plain Glu; also called PIVKAII Gla domain (13-27) analog) [Gla domain Protein C peptide (sequence 14)]

>  <Label>
YES

$$$$
